Ref: patent US9113629B2

Recorded pest or weed control at 35 g/ha for the following compounds
Test system: test plant species in Direct Seeded Rice
Assay: Postemergence herbicidal activity in direct seeded rice (Table 13)
Assay type: in vivo
Settings: post-emergence, 504 h; CYPSS: sedge (Cyperus difformis, esculentus, iria); 35 g ai/ha; read-out: Visual Growth Reduction (%) 21 Days After Application CYPSS
Procedure: Seeds or nutlets of the desired test plant species were planted in a soil matrix prepared by mixing a loam soil (43 percent silt, 19 percent clay, and 38 percent sand, with a pH of about 8.1 and an organic matter content of about 1.5 percent) and river sand in an 80 to 20 ratio. […] A weighed amount, determined by the highest rate to be tested, of each test compound was placed in 25 mL glass vials and dissolved in a volume of 97:3 v/v acetone-DMSO to obtain 12× stock solutions. […]

Consider the following illustrative entries.
> print(dat)
                           smiles.structure                    endpoint.name  measured.result
1    Nc1c(Cl)c(C(=O)O)nc(-c2ccc(Br)cc2)c1Cl  pest or weed control at 35 g/ha       95 to 100%
2    COC(=O)c1nc(-c2ccc(I)cc2)c(Cl)c(N)c1Cl  pest or weed control at 35 g/ha       95 to 100%
3  COC(=O)c1nc(-c2ccc(C(F)(F)F)c(F)c2)c(F)c(N)c1Cl  pest or weed control at 35 g/ha        75 to 84%
4   COC(=O)c1nc(-c2ccc(Br)c(F)c2F)nc(N)c1OC  pest or weed control at 35 g/ha       95 to 100%
5       COC(=O)c1nc(-c2ccc(I)cc2F)cc(N)c1Cl  pest or weed control at 35 g/ha       95 to 100%

Consider the record given below.
Query string: Given `Nc1cc(-c2ccc(Br)cc2F)nc(C(=O)O)c1Cl` , respond with its pest or weed control at 35 g/ha.
Result string: 95 to 100%

###

tested on: Key Broadleaf Weed and Crop Species; test: Post-emergent Test II herbicidal activity (Table 5); format: in vivo; conditions: post-emergence, 336 h; CHEAL: lambsquarters (Chenopodium album); application rate 70 g ai/ha; 14 days after application; read-out: Visual Growth Reduction (%) 14 Days After Application, CHEAL
Measured pest or weed control at 70 g/ha values are reported for all entries that follow.

Use these answered entries as a reference point.
> print(dat)
                                   compound                        target.system  measured.result
1  COC(=O)c1nc(-c2cccc(F)c2F)c(F)c(N)c1Cl [Compound 199]  Key Broadleaf Weed and Crop Species        85 to 94%
2  Cc1ccc(-c2nc(C(=O)O)c(Cl)c(N)c2F)c(F)c1F [Compound 210]  Key Broadleaf Weed and Crop Species       95 to 100%
3  COC(=O)c1nc(-c2ccc(OC(F)F)c(F)c2)c(F)c(N)c1Cl [Compound 152]  Key Broadleaf Weed and Crop Species        85 to 94%

Query string: Tell us which pest or weed control at 70 g/ha value is on record for COC(=O)c1nc(-c2ccc(I)cc2)nc(N)c1OC [Compound 18]
Result string: 85 to 94%

Query string: State its pest or weed control at 70 g/ha: Nc1c(F)c(-c2ccc(Cl)c(F)c2)nc(C(=O)O)c1Cl [Compound 217]
Result string: 95 to 100%

###

tested on: Key Broadleaf Weed and Crop Species; assay: Post-emergent Test II herbicidal activity (Table 5); format: in vivo; conditions: post-emergence, 336 h; ABUTH: velvetleaf (Abutilon theophrasti); application rate 70 g ai/ha; post-emergent; 14 days after application; read-out: Visual Growth Reduction (%) 14 Days After Application, ABUTH
ENDPOINT_NAME: pest or weed control at 70 g/ha

Here's what some known entries look like.
> print(dat)
                                   molecule  measured.result
1  Cc1cc(F)c(-c2cc(N)c(Cl)c(C(=O)O)n2)cc1F [Compound 188]        75 to 84%
2  Nc1cc(-c2cc(F)c(C(F)F)cc2F)nc(C(=O)O)c1Cl [Compound 174]        75 to 84%

Query string: Supply measured pest or weed control at 70 g/ha of Nc1cc(-c2cc(F)c(OC(F)F)cc2F)nc(C(=O)O)c1Cl [Compound 187] in your reply.
Result string: 45 to 59%

Query string: Give a short answer stating reported pest or weed control at 70 g/ha for Nc1c(F)c(-c2cc(F)c(C(F)F)cc2F)nc(C(=O)O)c1Cl [Compound 178] .
Result string: 75 to 84%

###

Below is a list of entries, each paired with its recorded pest or weed control at 70 g/ha value.
test system: Key Broadleaf Weed and Crop Species; experiment: Post-emergent Test II herbicidal activity (Table 5); assay type: in vivo; conditions: post-emergence, 336 h; AMARE: redroot pigweed (Amaranthus retroflexus); application rate 70 g ai/ha; 14 days after application; read-out: Visual Growth Reduction (%) 14 Days After Application, AMARE

> print(dat)
                           smiles.structure                    endpoint.name  measured.result
1  Nc1c(F)c(-c2ccc(Br)c(F)c2)nc(C(=O)O)c1Cl  pest or weed control at 70 g/ha       95 to 100%

Query string: Look up pest or weed control at 70 g/ha of `C#Cc1ccc(-c2nc(C(=O)OC)c(Cl)c(N)c2F)cc1` and report it.
Result string: 95 to 100%

Query string: Identify measured pest or weed control at 70 g/ha associated with `C#Cc1ccc(-c2nc(C(=O)OC)c(Cl)c(N)c2F)c(F)c1F`
Result string: 0 to 29%

Query string: Indicate the recorded pest or weed control at 70 g/ha value for this compound: `COC(=O)c1nc(-c2ccc(F)cc2)c(F)c(N)c1Cl`
Result string: 95 to 100%

Query string: Given `Nc1cc(-c2ccc(Br)c(F)c2F)nc(C(=O)O)c1Cl` , respond with its pest or weed control at 70 g/ha.
Result string: 95 to 100%

Query string: In one line, give reported pest or weed control at 70 g/ha of the entry `COc1c(N)nc(-c2ccc(Br)cc2F)nc1C(=O)O` .
Result string: 85 to 94%

###

tested on: Key Broadleaf Weed and Crop Species; assay: Post-emergent Test II herbicidal activity (Table 5); type: in vivo; details: post-emergence, 336 h; VIOTR: wild pansy (Viola tricolor); application rate 140 g ai/ha; 14 days after application; read-out: Visual Growth Reduction (%) 14 Days After Application, VIOTR
ENDPOINT_NAME: pest or weed control at 140 g/ha

> print(dat)
                         smiles.structure                     endpoint.name  measured.result
1  N#Cc1ccc(-c2nc(C(=O)O)c(Cl)c(N)c2F)cc1  pest or weed control at 140 g/ha        30 to 44%

Query string: # return pest or weed control at 140 g/ha for `COC(=O)c1ccc(-c2nc(C(=O)OC)c(Cl)c(N)c2F)cc1` , test system: Key Broadleaf Weed and Crop Species
Result string: 0 to 29%

Query string: Enter measured pest or weed control at 140 g/ha, system Key Broadleaf Weed and Crop Species, for the compound shown: `C#Cc1ccc(-c2nc(C(=O)OC)c(Cl)c(N)c2F)c(F)c1`
Result string: 0 to 29%

Query string: Give measured pest or weed control at 140 g/ha for `Nc1c(F)c(-c2ccc(I)cc2F)nc(C(=O)O)c1Cl` (Key Broadleaf Weed and Crop Species).
Result string: 95 to 100%

Query string: Name the recorded pest or weed control at 140 g/ha of `C#Cc1ccc(-c2nc(C(=O)O)c(Cl)c(N)c2F)cc1` , assay system Key Broadleaf Weed and Crop Species.
Result string: 0 to 29%

###

Examples of compounds with documented GR80 LOLSS follow.
tested on: LOLSS: ryegrass including, Italian ryegrass (Lolium multiflorum), rigid ryegrass (Lolium rigidum), annual ryegrass (Lolium multiflorum subsp. Gaudini); assay: Post-emergent Test III, herbicidal activity in wheat and barley; assay type: in vivo; conditions: Table 9; dose for 80 percent growth reduction, probit analysis; 21 d

Example compounds with recorded GR80 LOLSS:
> print(dat)
                                   compound  measured.result
1  C=Cc1c(C(=O)O)nc(-c2ccc(C#N)cc2)c(F)c1N [Compound 150]     >140 g ai/ha
2  COC(=O)c1nc(-c2cc(F)c(Br)cc2F)c(F)c(N)c1Cl [Compound 51]       61 g ai/ha
3  C=Cc1c(C(=O)O)nc(-c2ccc(Br)cc2)c(F)c1N [Compound 117]     >140 g ai/ha

Field: next compound
Query string: State its GR80 LOLSS for this compound: COC(=O)c1nc(-c2ccc(Br)cc2F)nc(N)c1OC [Compound 35]
Result string: >140 g ai/ha
